- System: Pyricularia oryzae (PYRIOR)
- assay_name: microbe, parasite or virus in culture
- Format: cell-based
- test_context: 72 h, read-out: EC50 PYRIOR
API: label(entry) gives TRUE if the entry's EC50 is strictly smaller than 1 µg/mL; on equality or larger values it gives FALSE.

// below: answered compounds
compound	class_label
CCC(C)CCOCC#CCn1nc(-c2ccc(Cl)cn2)ccc1=O (centres unmarked) [drawing 100]	TRUE
CCC#CCN1N=C(c2cc(Cl)ccn2)CCC1=O	FALSE
CCC#CCn1nc(-c2ncccc2Cl)ccc1=O [drawing 109]	FALSE
CCC#CCN1N=C(c2ncccc2Cl)CCC1=O [drawing 108]	FALSE
CCC#CCn1nc(-c2ncc(Cl)cc2Cl)ccc1=O [drawing 111]	FALSE

Exercise: Please let me know if CCC#CCn1nc(-c2ccc(C(F)(F)F)cn2)ccc1=O shows EC50 below 1 µg/mL.
Solution: TRUE

Exercise: Please let me know if CCC#CCn1nc(-c2ccc(F)c(F)n2)ccc1=O shows EC50 below 1 µg/mL.
Solution: TRUE

Exercise: Please let me know if CCC#CCn1nc(-c2ccc(Cl)cn2)ccc1=O [drawing 96] shows EC50 below 1 µg/mL.
Solution: TRUE

Exercise: Please let me know if CCC#CCN1N=C(c2nc(Cl)c(Cl)cc2Cl)CCC1=O [drawing 113] shows EC50 below 1 µg/mL.
Solution: FALSE

Exercise: Please let me know if O=c1ccc(-c2ccc(Cl)cn2)nn1CC#CC1CC1 [drawing 101] shows EC50 below 1 µg/mL.
Solution: TRUE
